Experimental Target: Plasmodium falciparum protein kinase 6 (PK6, PF3D7_1337100) (UniProt Q8IDW1)
Assay Notes: PfPK6 kinase inhibitors, biochemical, TCAMS library (AID 1159586)
Condition Set: recombinant PfPK6, Kinase-Glo ATP depletion luminescence
Potency and affinity values are given separately. The source made the active and inactive calls. No rule for the calls is given here.
Measured Metric: outcome

Field: example entries. Status: answers known.
1) Cc1ccc(C)c2sc(N(CCCn3ccnc3)C(=O)C=Cc3cccs3)nc12; inactive
2) CC(=O)Nc1ccc(S(=O)(=O)N(Cc2cccc(Oc3ccccc3)c2)C2CCN(C/C=C(\C)CCC=C(C)C)CC2)cc1; inactive
3) CCN(CC)CCN(Cc1ccc(-c2ccc(C(F)(F)F)cc2)cc1)C(=O)Cn1c(CCc2cc(F)cc(F)c2)nc(=O)c2ccccc21; inactive
4) COc1cc(CNCCCNc2nc3ccsc3c(=O)[nH]2)c2[nH]cc(Cl)c2c1; inactive
5) O=C(Nc1cccc(CN2CCCN(Cc3ccc(O)cc3)CC2)c1)c1ccc(Cl)c(Cl)c1; inactive

Ask: Which outcome reading was recorded for the compound `O=c1[nH]c2ccc3[nH]cccc3c2c1C=Nc1ccc(Cn2ccnc2)cc1` ?
Reply: inactive

---

Experimental Target: L-lactate dehydrogenase (Plasmodium falciparum (isolate CDC / Honduras)) (UniProt Q27743)
Sequence (Q27743 whole entry, looked up): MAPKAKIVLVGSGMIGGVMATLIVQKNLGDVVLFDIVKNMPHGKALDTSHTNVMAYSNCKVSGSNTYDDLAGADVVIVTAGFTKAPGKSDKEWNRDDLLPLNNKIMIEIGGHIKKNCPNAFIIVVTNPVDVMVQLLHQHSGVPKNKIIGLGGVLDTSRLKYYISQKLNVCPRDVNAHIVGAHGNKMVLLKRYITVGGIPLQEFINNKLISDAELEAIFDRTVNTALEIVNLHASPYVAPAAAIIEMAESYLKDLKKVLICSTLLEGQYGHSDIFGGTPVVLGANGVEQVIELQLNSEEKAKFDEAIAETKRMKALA
Assay Notes: PfLDH activity inhibition – cell lysate, 3D7 strain, counter-screen for P. falciparum growth inhibition project (AID 2304);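 also: 0% = vehicle and 100% = reference inhibitor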
Condition Set: P. falciparum 3D7 crude extract, LDH APAD/NBT absorbance; at 2 µM; stronger effect = higher value
Reported inhibition values for the following molecules.
Reply numerically in %, unit not repeated.

Consider the following illustrative entries.
1) NS(=O)(=O)c1cccc(-c2ccc3nccc(-c4cccc(S(N)(=O)=O)c4)c3c2)c1; 4
2) CCCCN(C(=O)c1ccccc1C)c1nnc(-c2ccccc2C)s1; 2
3) C=C[C@]1(C)C[C@@H](OC(=O)c2cncn(COC)c2=O)[C@]2(C)[C@H](C)CC[C@]3(CCC(=O)[C@H]32)[C@@H](C)[C@@H]1O; -1
4) COc1cc(C(=O)NCc2nn(CCN3CCC(N4CCCC4)CC3)cc2-c2ccc(Cl)c(Cl)c2)cc(OC)c1OC; -1
5) CCOc1cc(CC)ccc1C1CCN(CCN2CCC(NC(=O)c3ccc(-c4ccc(C#N)cc4)cc3)CC2)CC1; 6

Ask: What does the record list as inhibition for `COc1cc(NC(=O)c2sc(-c3ccc(Cl)cc3)cc2Cl)ccc1OCCN1CCCC1` ?
Reply: 4

Ask: May I ask what inhibition has been recorded for `C=CCc1cc(Cc2cnc(N)nc2N)cc(CCC)c1O` ?
Reply: -1

Ask: Which inhibition value belongs to CC(C)CCNC(=O)C1Cc2c([nH]c3cc(Br)ccc23)C2(CCN(CCc3ccccc3)CC2)N1 (centres undefined) ?
Reply: -1

Ask: Which inhibition is reported for this molecule? `Cc1[nH]c(C)c(-c2ccc(Oc3cccc(Cl)c3)cc2)c(=O)c1Cl`
Reply: -3

---

Experimental Target: L-lactate dehydrogenase (Plasmodium falciparum (isolate CDC / Honduras))
Assay Notes: PfLDH activity inhibition – cell lysate, 3D7 strain, counter-screen for P. falciparum growth inhibition project (AID 2304);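 also: 0% = vehicle and 100% = reference inhibitor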
Condition Set: P. falciparum 3D7 crude extract, LDH APAD/NBT absorbance; at 2 µM; stronger effect = higher value
Measured Metric: inhibition (%)
The reply should be a number in %, with the unit left off.

1. CCCCCOc1ccc(C(O)C(CN2CCCCC2)c2ccccc2)cc1 (stereo not given); 5
2. Cc1c(CCNC(=O)CCCN2CC(C)CC(C)C2)c2ccccc2n1C (stereo not given); -9
3. Clc1ccc(C2CCN(CCCOc3ccc4c(c3)CCNCC4)CC2)cc1; -8

Ask: If you can, please state the reported inhibition value of `Cc1ccc(O)c(C(=O)c2cnc3c(c2)c(-c2ccc(F)cc2)c(C#N)c(=O)n3C)c1` .
Reply: 2

Ask: What does the data say about its inhibition? Entry: O=C(NCC1CCC(C(=O)NCCc2ccc(Cl)c(Cl)c2)CC1)c1ccc(O)c(-c2ccc(Cl)c(Cl)c2)c1 (stereo not given)
Reply: -1

Ask: // returns reported inhibition for input `Cn1cncc1C(=O)Nc1cccc(-c2cccc(-c3nc4ccc(F)cc4[nH]3)c2)c1`
Reply: 3

Ask: For the compound `Clc1cccnc1N1CCN(c2ncccc2Cl)CC1` , what inhibition is on record?
Reply: 4

Ask: Entry under review: `CN1C(=CC(=O)NC(=O)c2ccccc2)C(C)(C)c2ccccc21` . Reported inhibition?
Reply: 4

Ask: May I ask what inhibition has been recorded for `O=C(Cn1c(=O)oc2ccccc21)N1CCC(n2c(=O)n(CCCN3CCOCC3)c3ccccc32)CC1` ?
Reply: 5

Ask: Dear colleague, I am looking for the recorded inhibition of the following compound: `Cc1nc(C)c(CC(=O)Nc2cccc(-c3cccc(-c4nc5c(C)cccc5[nH]4)c3)c2)s1`
Reply: -6

Ask: What value of inhibition has been reported for the following compound? CCC1(C)N=C(N)N=C(N)N1c1ccccc1 (stereo not given)
Reply: 0

Ask: // inhibition lookup, key: `NC(=S)Cc1ccc2c(c1)OCO2`
Reply: -2

---

Assay Notes: inhibition of 3D7 malaria parasite growth – strain 3D7 (AID 2306);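 also: 0% = DMSO wells and 100% = chloroquine plus artemisinin control wells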
Condition Set: P. falciparum 3D7 erythrocytic growth, LDH absorbance, 72 h; at 2 µM; stronger effect = higher value
Measured Metric: growth inhibition (%)
Enter your answer as a number in %; do not include the unit.

Example results:
1) CN1CCC(c2nc(N)no2)C1 (stereo not given); 95
2) Cc1nnc2c(NC(=O)NC3CCCC3)cc3cc(-c4ccc(CN(C)C)cc4)ccc3n12; 100
3) COc1ccc2oc(=O)c(C#N)c(O)c2c1; 99
4) N#Cc1cccc(Nc2nccc(Nc3ccc(Oc4ccccc4)cc3)n2)c1; 94
5) COc1ccc2c(NN=Cc3ccc(F)cc3)ccnc2c1; 100
6) COc1cc2nc(NCCn3ccnc3C)nc(NCCc3ccccc3)c2cc1OC; 99
7) Cc1cc(N[C@@H](Cc2ccccc2)C(=O)NC2CCCC2)nc(NCC2CCCCC2)n1; 101
8) Clc1nc2ccccn2c1C=Cc1ccc2ccccc2n1; 86

Ask: # get_value(readout='growth inhibition', item= Cc1ccccc1OCC(O)CNC1CCC(NCC(O)COc2ccccc2C)CC1 (stereo not given) )
Reply: 98

Ask: Entry under review: `COc1cc(Cc2cnc(N)nc2N)cc(OCCCCCC(N)=O)c1OC` . Reported growth inhibition?
Reply: 90

Ask: Please look up its growth inhibition: CC(CCc1ccccc1)NCC(O)c1cccc(C(F)(F)F)c1 (stereo not given)
Reply: 99

Ask: Look up growth inhibition for this compound: `Cc1cnc(NCC2CCCCC2)nc1N[C@@H](CC(C)C)C(=O)Nc1ccccc1`
Reply: 96

Ask: So what's the measured growth inhibition for this one? `COc1ccc(CCNC(=O)c2ccccc2O)cc1-c1ccc(C(C)(C)C)cc1`
Reply: 95

Ask: Report growth inhibition for OC(CN(Cc1ccccc1)Cc1ccccc1)Cn1c2ccc(Cl)cc2c2cc(Cl)ccc21 (stereo not given) please.
Reply: 89

Ask: Look at this compound and give its reported growth inhibition. `CC(=O)Nc1ccc(CN2CCC(NC(=O)c3ccc(-c4cccc(F)c4)s3)CC2)cc1`
Reply: 96

Ask: Would you kindly share the measured growth inhibition for `CN(C)Cc1cccc(-c2ccc(NC(=O)c3ccc4c(=O)n(Cc5ccoc5)cnc4c3)cc2)c1` ?
Reply: 98

Ask: Would you kindly share the measured growth inhibition for `COc1cc(C)c(NC(=O)c2cccc3c(=O)c(C)c(-c4ccccc4)oc23)cc1OC` ?
Reply: 86

Ask: Entry under review: CCCC(C)N(Cc1ccc(C(C)(C)C)cc1)C(=O)c1ccc(OC)cc1 (stereo not given) . Reported growth inhibition?
Reply: 100

Ask: Fill blank: measured growth inhibition of the compound `O=C(/C=C/c1ccc(Cl)c(Cl)c1)N1CCC(CNCc2cccc3cc[nH]c23)CC1` is ____.
Reply: 85

---

Experimental Target: Calcium-dependent protein kinase 1 (Plasmodium falciparum (isolate 3D7)) (UniProt P62344)
Sequence (P62344 whole entry, looked up): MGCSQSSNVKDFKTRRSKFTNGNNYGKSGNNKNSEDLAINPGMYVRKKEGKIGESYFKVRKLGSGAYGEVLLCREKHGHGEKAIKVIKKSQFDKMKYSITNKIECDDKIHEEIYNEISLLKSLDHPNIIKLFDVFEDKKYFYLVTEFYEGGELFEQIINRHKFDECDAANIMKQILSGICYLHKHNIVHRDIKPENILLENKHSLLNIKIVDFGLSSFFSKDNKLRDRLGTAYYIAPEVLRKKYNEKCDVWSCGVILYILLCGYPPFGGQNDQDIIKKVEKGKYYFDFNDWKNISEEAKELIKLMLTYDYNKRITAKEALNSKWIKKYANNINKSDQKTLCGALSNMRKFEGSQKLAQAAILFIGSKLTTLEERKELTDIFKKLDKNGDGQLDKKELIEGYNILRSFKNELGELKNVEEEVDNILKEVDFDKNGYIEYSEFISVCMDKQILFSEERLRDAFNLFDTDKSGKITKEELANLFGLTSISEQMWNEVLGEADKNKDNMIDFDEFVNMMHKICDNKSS
Assay Notes: PfCDPK1 kinase inhibitors, biochemical, TCAMS library (AID 1159585);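 also: inhibitors leave more ATP so luminescence rises with inhibition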
Condition Set: recombinant PfCDPK1, Kinase-Glo ATP depletion luminescence
Potency and affinity values are given separately. Calls of active or inactive are those of the source. No cut-off is given here; in the data, nearly all actives have IC50 up to about 0.98 µM.
Measured Metric: outcome

Consider the following illustrative entries.
1) O=C(NC(Nc1ccc([N+](=O)[O-])cc1)C(Cl)(Cl)Cl)c1ccc(Cl)cc1 (stereo not drawn); inactive
2) CCN(CC)CCN(Cc1ccc(-c2ccc(C(F)(F)F)cc2)cc1)C(=O)Cn1c(CCc2cccc(F)c2F)nc(=O)c2sccc21; inactive
3) CCCc1ccc(S(=O)(=O)NC2CCN(c3ccnc(Nc4ccc(OC)cc4)n3)C2)cc1 (stereo not drawn); inactive
4) Cn1cncc1C(=O)Nc1ccc(-c2cccc(-c3nc4ccc(C(F)(F)F)cc4[nH]3)c2)cc1; inactive
5) O=C(/C=C/c1ccc(Cl)cc1)NCCCCCN1CCC(C(=O)Nc2ccc(Cl)cc2)CC1; inactive
6) CC(C)COc1ccc(Cl)cc1Cc1ccc(-c2nc3ccc(C(F)(F)F)cc3[nH]2)o1; inactive
7) CCN(CC)CCN(Cc1ccc(-c2ccc(C(F)(F)F)cc2)cc1)C(=O)Cn1c(CCc2ccc(F)c(F)c2F)nc(=O)c2ccccc21; inactive

Ask: // outcome lookup, key: O=C(c1ccc(Cl)c(Cl)c1)N1CCc2c([nH]c3ccccc23)C1CN1CCCC1 (stereo not drawn)
Reply: inactive
